Numbers sourced from patent US7166622B2.

- Tested on: beta amyloid production
- PROCEDURE_DETAILS: Repressor Release Assay (RRA)
- Format: cell-based
- ASSAY_CONDITIONS: Conc 20 μg/ml; luciferase activity over diluent control; read-out: APPI Fold Increase
- Method: CHO-K1 cells were cultured in whole DMEM media (DMEM—High Glucose with 10% fetal bovine serum, 1% Non-essential Amino Acids, and 1% Penicillin-Streptomycin) at 37° C. with 5% CO2. […] Luciferase assays (LucLite reagent, Packard) were performed and were read on a Packard TopCount instrument. […] Luciferase readings were then taken on the TopCount instrument. Measurements were expressed as relative light units (RLU) and are calculated and analyzed in MS Excel as follows: […]
Decide by fold induction at 20 µg/mL: equal to or exceeding 2 means yes, less means no.

Hi, just wondering whether O=S(=O)(N[C@@H](CO)c1ccc(O)cc1)c1ccc(Br)cc1 [Example 17] shows fold induction at 20 µg/mL of 2 or higher.
yes

Hi, just wondering whether CC[C@H](C)[C@@H](CO)N(Cc1ccc(OC)c(OC)c1)S(=O)(=O)c1ccc(Cl)cc1 [Example 45] shows fold induction at 20 µg/mL of 2 or higher.
no

Hi, just wondering whether CC[C@H](C)[C@@H](CO)NS(=O)(=O)c1ccc(Cl)c(N)c1 [Example 14] shows fold induction at 20 µg/mL of 2 or higher.
no

Hi, just wondering whether O=S(=O)(NC1(CO)CCCC1)c1ccccc1F [Example 114] shows fold induction at 20 µg/mL of 2 or higher.
no

Hi, just wondering whether O=S(=O)(NC1(CO)CCCCC1)c1ccc(Cl)cc1 [Example 123] shows fold induction at 20 µg/mL of 2 or higher.
yes

Hi, just wondering whether CC(C)[C@@H](CO)NS(=O)(=O)c1ccccc1F [Example 119] shows fold induction at 20 µg/mL of 2 or higher.
no

Hi, just wondering whether CC[C@H](C)[C@@H](CO)NS(=O)(=O)c1ccccc1F [Example 11] shows fold induction at 20 µg/mL of 2 or higher.
yes

Hi, just wondering whether CC(C)C[C@@H](CO)NS(=O)(=O)c1ccc(Cl)cc1 [Example 92] shows fold induction at 20 µg/mL of 2 or higher.
no
